Molecular target: T1, Q278A
T1 construct: % monomer 92.32; also called MICA*008.mIgG2a Q278A
T1 chain: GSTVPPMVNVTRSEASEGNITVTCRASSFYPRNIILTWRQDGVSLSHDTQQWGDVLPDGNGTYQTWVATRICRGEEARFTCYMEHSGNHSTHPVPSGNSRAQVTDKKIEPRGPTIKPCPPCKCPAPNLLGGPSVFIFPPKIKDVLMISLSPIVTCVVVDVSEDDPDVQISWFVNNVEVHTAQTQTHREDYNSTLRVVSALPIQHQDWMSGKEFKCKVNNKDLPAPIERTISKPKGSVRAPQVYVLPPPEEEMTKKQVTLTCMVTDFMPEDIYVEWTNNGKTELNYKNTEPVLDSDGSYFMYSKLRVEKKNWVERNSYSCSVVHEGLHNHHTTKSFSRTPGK
Test: SPR, Fab over captured MICA*008.mIgG2a Ala variant; KD relative to wild type
ENDPOINT: fold-decrease in affinity
Hey, just send me the number, nothing else.

>  <BINDER>
6F8.7 Fab (Fab, V domains shown) VH: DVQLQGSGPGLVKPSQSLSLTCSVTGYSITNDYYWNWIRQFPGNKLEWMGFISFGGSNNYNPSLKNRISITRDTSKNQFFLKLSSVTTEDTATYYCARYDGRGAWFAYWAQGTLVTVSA VL: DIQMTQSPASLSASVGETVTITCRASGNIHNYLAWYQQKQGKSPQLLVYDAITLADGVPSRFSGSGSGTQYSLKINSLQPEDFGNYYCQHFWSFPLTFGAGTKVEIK

>  <ENDPOINT>
fold-decrease in affinity

>  <VAL>
0.5

$$$$

Return value of fold-decrease in affinity for input 7D4.6 Fab (Fab, V domains shown) VH: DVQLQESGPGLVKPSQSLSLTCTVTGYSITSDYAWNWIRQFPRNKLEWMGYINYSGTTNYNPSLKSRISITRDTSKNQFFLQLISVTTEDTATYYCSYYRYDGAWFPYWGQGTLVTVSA VL: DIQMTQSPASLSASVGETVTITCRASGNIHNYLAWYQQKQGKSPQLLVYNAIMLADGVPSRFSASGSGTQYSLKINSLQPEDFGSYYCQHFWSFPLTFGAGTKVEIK , no commentary.
4.9

Return value of fold-decrease in affinity for input 1D5 Fab (Fab, V domains shown, Expressed in E. coli as chimera of murine variable and human constant domains; not shown: human IgG1 CH1 constant domain; human kappa CL constant domain) VH: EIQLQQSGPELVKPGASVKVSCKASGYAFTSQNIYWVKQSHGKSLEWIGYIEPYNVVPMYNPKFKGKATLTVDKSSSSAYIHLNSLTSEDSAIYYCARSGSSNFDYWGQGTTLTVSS VL: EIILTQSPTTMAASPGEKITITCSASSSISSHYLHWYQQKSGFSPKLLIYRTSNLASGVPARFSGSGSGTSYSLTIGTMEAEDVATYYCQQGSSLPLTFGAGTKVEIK , no commentary.
0.7

Return value of fold-decrease in affinity for input 2E5.2.3 Fab (Fab, V domains shown) VH: QGQMQQSGAELVKPGASVKLSCKTSGFTFSDNYISWLKQKPGQSLEWIAWIYAGTGGTSYNQKFTAKAQLTVDTSSSTAYMQFSSLTTEDSAIYYCARHDYYGTSGAWFAYWGQGTLVTVSA VL: DVLMTQTPLSLPVSLGDQASLSCRSSQNIVHINGNTYLEWYLQKPGQSPKLLIYKVSNRFSGVPDRFSGSGSGTDFTLKISRVEAEDLGVYYCFQGSHVPWTFGGGTKVEIK , no commentary.
1
